Assay: inhibition of 3D7 malaria parasite growth – strain 3D7 (AID 2306);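 note: 0% = DMSO wells and 100% = chloroquine plus artemisinin control wells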
Conditions: P. falciparum 3D7 erythrocytic growth, LDH absorbance, 72 h; at 2 µM; stronger effect = higher value
result_type: growth inhibition (%)
Return type: number; implicit unit %.

Please review the following examples before continuing.
# compound_structure, readout_units, growth inhibition
records = [
    ("CCNc1cc(C)nc(Nc2ccc(NS(=O)(=O)c3ccccc3)cc2)n1", "%", 100),
    ("NOCCCOc1ccc(Cl)cc1", "%", 98),
    ("COc1ccc(C[C@H](N)C(=O)N[C@H]2[C@@H](O)[C@H](n3cnc4c(N(C)C)ncnc43)O[C@@H]2CO)cc1", "%", 100),
]

[in] I would be grateful if you could share the reported growth inhibition for COc1cccc(-c2ccc3ccnc(N)c3c2)c1 .
[out] 101

[in] Another compound to look at: NC1=NC(c2ccccc2)(c2ccccc2)C(=O)N1CC1CCC1
[out] 96

----------
Measured parasite load remaining accompanies every entry in the list below.
Assay: liver-stage malaria parasite growth inhibition, primary screen, cell-based, HepG2, luciferase luminescence, HepG2 viability (AID 624349);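 note: 100% = mean of DMSO negative control wells on the same plate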
Details: P. berghei liver stage in HepG2, luciferase luminescence, concentration not given here; stronger effect = lower value
Calls of active or inactive are those of the source. Rule as the data show it: active = parasite load remaining mostly below about 12% (no sharp cut-off); inactive = mostly above about 10%.

Please review the following examples before continuing.
# compound_structure, parasite load remaining
records = [
    ("CN(C/C=C/c1ccccc1)Cc1cccc2ccccc12", "71.6% (inactive)"),
    ("CC(C)(C)NC[C@H](O)COc1cccc2c1CCCC2=O", "68.1% (inactive)"),
]

[in] I would be grateful if you could share the reported parasite load remaining for CCC1=C[C@@H]2CN(C1)Cc1c([nH]c3ccccc13)[C@@](C(=O)OC)(c1cc3c(cc1OC)N(C)[C@H]1[C@@](O)(C(=O)OC)[C@H](OC(C)=O)[C@]4(CC)C=CCN5CC[C@]31[C@@H]54)C2 .
[out] 30.5% (inactive)

----------
Experiment: stimulators of nuclear beta-catenin in C2C12, primary screen, imaging, WNT3A-conditioned medium, mouse C2C12, NPC library (AID 1117326)
Settings: stimulation, at 2 µM, stronger effect = higher value
Measured nuclear beta-catenin stimulation accompanies every entry in the list below.
Return type: number; implicit unit %.

Please review the following examples before continuing.
# molecule, readout_number
data = [
    ("CC(=O)NCc1c(I)c(NC(C)=O)c(I)c(C(=O)O)c1I", -1.3),
    ("CNC(=O)c1cc(Oc2ccc(NC(=O)Nc3ccc(Cl)c(C(F)(F)F)c3)cc2)ccn1", 9.1),
    ("CCC1Nc2cc(Cl)c(S(N)(=O)=O)cc2S(=O)(=O)N1 (stereo not drawn)", -1.8),
    ("Cc1oc(=O)oc1CN1CCN(c2cc3c(cc2F)c(=O)c(C(=O)O)c2n3C(C)S2)CC1 (stereo not drawn)", 1.4),
    ("COc1cc2c(cc1OC)[C@@H]1CC(=O)[C@@H](CC(C)C)CN1CC2", 0.1),
]

[in] I would be grateful if you could share the reported nuclear beta-catenin stimulation for CC(C)NC[C@@H](O)COc1ccc(CC(N)=O)cc1 .
[out] 1.2

[in] Another molecule to look at: Cc1ccc(C(=O)c2cc(O)c(O)c([N+](=O)[O-])c2)cc1
[out] 1.2

[in] Another molecule to look at: CC(=O)c1ccc2c(c1)N(CCCN(C)C)c1ccccc1S2
[out] 1.4

[in] Another molecule to look at: COc1ccc(-c2ccc3cc(C(=O)O)ccc3c2)cc1C12CC3CC(CC(C3)C1)C2
[out] 32.2

[in] Another molecule to look at: C1CCN2C[C@@H]3C[C@@H](CN4CCCC[C@@H]34)[C@H]2C1
[out] -0.5

----------
Assay: stimulators of nuclear beta-catenin in C2C12, primary screen, imaging, WNT3A-conditioned medium, mouse C2C12, NPC library (AID 1117326)
Conditions: stimulation, at 2 µM, stronger effect = higher value
result_type: nuclear beta-catenin stimulation (%)
Return type: number; implicit unit %.

# compound, nuclear beta-catenin stimulation (%)
data = [
    ("Cc1cc2c(cc1CC(=O)c1sccc1S(=O)(=O)Nc1onc(C)c1Cl)OCO2", 3),
    ("O=C(CCCCCCC(=O)Nc1ccccc1)NO", 7.1),
    ("CCOc1ccccc1C(N)=O", 1.6),
    ("CCCCCCCCCCCCCCCC(=O)OCC=C(C)C=CC=C(C)C=CC1=C(C)CCCC1(C)C", -0.3),
    ("O=C(O)C1CCC1", 6.2),
]

[in] I would be grateful if you could share the reported nuclear beta-catenin stimulation for FC(F)(F)C(F)(F)C(F)(F)C(F)(F)C(F)(F)C(F)(F)C(F)(F)C(F)(F)Br .
[out] 11.4

[in] Another compound to look at: O=c1[nH]c(=O)c2ccccc2o1
[out] 0.3

[in] Another compound to look at: N#Cc1cc(NC(=O)C(=O)O)c(Cl)c(NC(=O)C(=O)O)c1
[out] 1.2

----------
Biological target: 6-phosphogluconate dehydrogenase, decarboxylating (Homo sapiens)
Assay: 6PGD enzyme inhibitors, primary screen, biochemical, human, recombinant enzyme, NADPH absorbance (AID 1159550)
Conditions: recombinant 6PGD, NADPH absorbance 341 nm; at 10 µM; stronger effect = higher value
Measured inhibition accompanies every entry in the list below.
Return type: number; implicit unit %.

Please review the following examples before continuing.
# compound, tested_system, inhibition / %
measured = [
    ("CCN1CCN(C(=O)N[C@@H](C(=O)N[C@@H]2C(=O)N3[C@@H]2SC(C)(C)[C@@H]3C(=O)O)c2ccccc2)C(=O)C1=O", "6-phosphogluconate dehydrogenase, decarboxylating (Homo sapiens)", 12.4),
    ("N[C@@H](CSCSC[C@H](N)C(=O)O)C(=O)O", "6-phosphogluconate dehydrogenase, decarboxylating (Homo sapiens)", 6.1),
]

Query compound follows.
[in] I would be grateful if you could share the reported inhibition for C#CCCCCCCCCCCCC(O)CC(O)COC(C)=O (stereo not drawn) .
[out] 8.03

----------
Measured normalised cell number accompanies every entry in the list below.
Assay: differential killing of epithelial or mesenchymal cells, primary screen, imaging, PC-3E GFP, TEM4-18 mCherry, co-culture (AID 1345086);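 note: cells exposed to compound for 72 h before imaging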
Details: imaging cell counts, measured here: epithelial PC-3E GFP cell survival, at 1 µM
Returns: the value as a bare number; no unit string appended.

Please review the following examples before continuing.
# molecule, normalised cell number
data = [
    ("NCCc1cnc[nH]1", 0.99),
    ("COc1ccc(-c2oc3c(CC=C(C)C)c(O[C@@H]4O[C@H](CO)[C@@H](O)[C@H](O)[C@H]4O)cc(O)c3c(=O)c2O[C@@H]2O[C@@H](C)[C@H](O)[C@@H](O)[C@H]2O)cc1", 1.01),
    ("N[C@@H](C(=O)O)[C@@H](O)[C@H](O)[C@H](O)CO", 1.02),
    ("CC1=CCc2c(cc3oc(C)cc(=O)c3c2O)OC1", 1.02),
    ("C=C1C2CC[C@@]3(C)[C@H](c4ccoc4)OC(=O)C[C@]13O[C@H]1CC(O)C(C)(C)C(CC(=O)OC)[C@@]21C (stereo partly drawn)", 0.98),
    ("COc1cc(-c2coc3cc(OC)c(OC)c(OC)c3c2=O)cc(OC)c1OC", 0.98),
    ("COc1ccc2c(=O)c(CC(=O)O)coc2c1", 0.98),
]

Query molecule follows.
[in] I would be grateful if you could share the reported normalised cell number for COc1c2ccoc2nc2c(OC)c(OCC(O)C(C)(C)O)ccc12 (stereo not drawn) .
[out] 1

----------
Assay: stimulators of insulin release from INS-1E, primary screen, cell-based, 5 mM glucose, NPC library (AID 1117329)
Details: rat INS-1E insulin secretion, at 10 µM, stronger effect = higher value
Activity calls are given as the source filed them.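 How the source made its calls: active means compound raises insulin release from rat beta cells at 5 mM glucose, no numeric limit stated; inactive means the rest.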
result_type: insulin secretion stimulation

Please review the following examples before continuing.
# molecule, insulin secretion stimulation
records = [
    ("CCN(CC)CC(=O)Nc1c(C)cc(C)cc1C", "-0.3% (inactive)"),
    ("CNS(=O)(=O)CCc1ccc2[nH]cc(C3CCN(C)CC3)c2c1", "0.5% (inactive)"),
]

[in] I would be grateful if you could share the reported insulin secretion stimulation for CCCCN(CCCC)CC(O)c1cc(Cl)cc2c1-c1ccc(Cl)cc1/C2=C/c1ccc(Cl)cc1 (stereo not drawn) .
[out] -0.3% (inactive)

----------
Assay: differential killing of epithelial or mesenchymal cells, primary screen, imaging, PC-3E GFP, TEM4-18 mCherry, co-culture (AID 1345086);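 note: cells exposed to compound for 72 h before imaging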
Conditions: imaging cell counts, measured here: epithelial PC-3E GFP cell survival, at 1 µM
Measured normalised cell number accompanies every entry in the list below.
Returns: the value as a bare number; no unit string appended.

# compound, normalised cell number
rows = [
    ("CCN(CC)C(=O)c1cccnc1", 0.99),
    ("CCCc1nc(C(C)(C)O)c(C(=O)OCc2oc(=O)oc2C)n1Cc1ccc(-c2ccccc2-c2nn[nH]n2)cc1", 1.01),
    ("CCCCCCCCCCCCCCCC(=O)OC/C=C(C)/C=C/C=C(C)/C=C/C1=C(C)CCCC1(C)C", 0.95),
    ("C[C@@H](O)[C@H]1C(=O)N2C(C(=O)O)=C(SCCN=CN)C[C@H]12", 1.17),
    ("NC(N)=NC(N)=NCCc1ccccc1", 1.06),
]

[in] I would be grateful if you could share the reported normalised cell number for C[C@@]12C(=O)OC(=O)[C@]1(C)C1CCC2O1 .
[out] 1.02

[in] Another compound to look at: Clc1ccc(Cn2c(CN3CCCC3)nc3ccccc32)cc1
[out] 1.28

[in] Another compound to look at: Cc1cc(O)c(C=O)c(O)c1C(=O)O
[out] 1.14

[in] Another compound to look at: O=C(O)C1=C[C@@H](O)[C@@H](O)[C@H](O)C1
[out] 0.91

[in] Another compound to look at: O=C(O[C@@H]1Cc2c(O)cc(O)cc2O[C@@H]1c1cc(O)c(O)c(O)c1-c1c([C@H]2Oc3cc(O)cc(O)c3C[C@H]2OC(=O)c2cc(O)c(O)c(O)c2)cc(O)c(O)c1O)c1cc(O)c(O)c(O)c1
[out] 0.89

[in] Another compound to look at: CC(C)=CCc1c2c(c3occ(-c4ccc(O)cc4)c(=O)c3c1O)C=CC(C)(C)O2
[out] 1.04

[in] Another compound to look at: C=C[C@@](C)(O)CCC1C(=C)CCC2[C@@](C)(CO)CCC[C@]12C (stereo partly specified)
[out] 1.15

[in] Another compound to look at: CC(=O)N[C@@H]1[C@@H](O)[C@H](O)[C@@H](CO)O[C@H]1O
[out] 1

[in] Another compound to look at: Oc1ccc(O)cc1
[out] 1.14

[in] Another compound to look at: Cc1cc(=O)oc2cc(O)cc(O)c12
[out] 1.18

[in] Another compound to look at: CCC(C)C(NC)C(=O)O (stereo unspecified)
[out] 1.08

Recorded values, source PubChem BioAssay.
